test: JC-1 mitochondrial signal, unstimulated MM1S myeloma – cell-based, JC-1 fluorescence, 24 h, 100 nL compound, profiling panel (AID 1170); details: MM1S mitochondrial potential, higher = more signal; also: test concentration not given here
Overview of recorded z-score for various compounds
Reply briefly: the number, and no unit.

The following compounds have reported results that may help.
>  <Compound>
C[N+](C)(C)CCCCCCNC(=O)[C@H]1C[C@H]2C(=O)N[C@@H](Cc3ccccc3)C(=O)N2[C@H]1c1cccc(OCCO)c1

>  <z-score>
-0.545

$$$$
>  <Compound>
CN(C)CCCC[C@@H]1NC(=O)[C@H]2C[C@@H](C(=O)NCCCCCN)[C@@H](c3cccc(OCCO)c3)N2C1=O

>  <z-score>
1.26

$$$$
>  <Compound>
CCCC[C@H]1C[C@@H]1[C@@H]1N(P(=O)(c2ccccc2)c2ccccc2)C[C@@](O)(c2ccccc2)CC12CC2

>  <z-score>
-2.78

$$$$

Then this compound:
I'd like to know its z-score. The compound in question is CC(c1ccccc1)C(O)C1C=CC2C(=O)N(C)C(=O)C2N1NC(=O)OC(C)(C)C (centres undefined)
0.772

----------
assay: blockers of DNA damage checkpoint Chk1 activation – imaging, HeLa, hydroxyurea, phospho-Chk1 antibody, percent positive cells, primary screen (AID 1186); settings: hydroxyurea-induced phospho-Chk1 immunofluorescence imaging, higher = more signal
Readout name: z-score
Reply briefly: the number, and no unit.

>  <Compound>
O=C1O[C@H](c2ccccc2)[C@H](c2ccccc2)N2[C@H]1[C@@H](C(=O)NC[C@H](O)c1ccccc1)[C@]1(C(=O)Nc3ccccc31)[C@H]2c1ccc(O)cc1

>  <z-score>
-0.0383

$$$$
>  <Compound>
COCC(=C=CC[C@H](O)c1cccc(OCCO)c1)C[C@H](O)c1cc(Cl)cc(Cl)c1O

>  <z-score>
0.144

$$$$
>  <Compound>
CC(C)=CCCC(C)=CC(O)C1C=CC2C(=O)N(c3ccccc3)C(=O)C2N1Nc1ccc(C(C)C)cc1 (stereo unspecified)

>  <z-score>
0.342

$$$$

I'd like to know its z-score. The compound in question is COC(=O)C(CC#Cc1ccc2c(c1)[C@]1(C(=O)N2)[C@H](c2ccc(O)cc2)N2[C@H](c3ccccc3)[C@H](c3ccccc3)OC(=O)[C@H]2[C@@H]1C(=O)N1CCN(c2ncccn2)CC1)C(=O)OC
-0.231

----------
test system: Sam68 (KHDRBS1); test: compounds binding KHDRBS1 protein – biochemical, small-molecule microarray, 635 nm fluorescence, primary screen (AID 1125); settings: higher = more signal;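 also: score merges 667 nm channel intensity with signal to noise over triplicate slides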
Overview of recorded composite z-score for various molecules
Reply briefly: the number, and no unit.

The following molecules have reported results that may help.
>  <Molecule>
NCCCCCNC(=O)[C@H]1C[C@H]2C(=O)N3CCC[C@H]3C(=O)N2[C@H]1c1ccc(O)cc1

>  <Readout name>
composite z-score

>  <Recorded value>
1.33

$$$$
>  <Molecule>
COc1ccc(C(=O)Nc2ccc(CN3C(=O)[C@]4(O[C@H](CC(=O)N5CCC[C@H]5CO)[C@@H]([Si](C)(C)c5ccc(OC)cc5)[C@@H]4C)c4ccccc43)cc2)cc1

>  <Readout name>
composite z-score

>  <Recorded value>
1.29

$$$$
>  <Molecule>
C=CC[C@]1(C(=O)NCc2ccccc2)N=C(c2ccc(OCCCO)cc2)O[C@H]1c1ccccc1CN=[N+]=[N-]

>  <Readout name>
composite z-score

>  <Recorded value>
1.31

$$$$
>  <Molecule>
C=C(/C(=C/C[C@H](OC(=O)c1ccncc1)c1ccc(OCCO)cc1)c1cc(C(=O)OC)ccc1OC)C(C)C

>  <Readout name>
composite z-score

>  <Recorded value>
0.516

$$$$
>  <Molecule>
CC(C)[Si](C#C[Si](C(C)C)(C(C)C)C(C)C)(O[C@H](C)c1cn(Cc2ccccc2)nn1)C(C)C

>  <Readout name>
composite z-score

>  <Recorded value>
1.03

$$$$

I'd like to know its composite z-score. The molecule in question is COC(=O)[C@@]1(Cc2ccc(OC)cc2)[C@H]2c3cc(C(=O)N4CCCC4)n(CCCNc4ncc(C(F)(F)F)cc4Cl)c3C[C@H]2CN1C(=O)c1ccccc1
0.313

I'd like to know its composite z-score. The molecule in question is OB1C=CCC(CCc2ccccc2)O1 (stereo not drawn)
-1.31

I'd like to know its composite z-score. The molecule in question is CCCNC(=O)[C@@]1(Sc2ccc(C)cc2)CC(=O)N(Cc2ccccc2C(F)(F)F)[C@@H]1c1ccc(CO)cc1I
1.29

----------
test: small molecules captured by biotinylated probe aFSTL3 – biochemical, small-molecule microarray, fluorescence 635/667, stem cell growth factor project, primary screen (AID 1064); details: higher = more signal;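 also: measures binding of the biotinylated anti-FSTL3 antibody to printed compounds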
Would you mind labelling by composite z-score? At or over 0.1 is Criterion met, under is Criterion not met.

Answered cases to consult:
>  <Compound>
COc1ccc(NN2C(C(O)c3ccc(N(C)C)cc3)C=CC3C(=O)N(C4CCCCC4)C(=O)C32)cc1 (configuration not stated)

>  <Label class>
Criterion met

$$$$
>  <Compound>
NC(=O)N1C(=O)C2C(C1=O)C1C=C(CCCO)C2C(C2CC2)N1Cc1cc2c(cc1Br)OCO2 (configuration not stated)

>  <Label class>
Criterion met

$$$$
>  <Compound>
NC(=O)[C@@H]1[C@H]2C(=O)O[C@H](c3ccccc3)[C@H](c3ccccc3)N2[C@H](c2ccc(OCCO)cc2)[C@@]12C(=O)Nc1ccc(C#CC3=CCCCC3)cc12

>  <Label class>
Criterion not met

$$$$
>  <Compound>
CCC(CC)C(O)C1C=CC2C(=O)N(c3ccccc3)C(=O)C2N1Nc1ccccc1 (configuration not stated)

>  <Label class>
Criterion met

$$$$
>  <Compound>
COCCCNC(=O)[C@@]1(Cc2ccccc2CN=[N+]=[N-])N=C(c2ccc(OCCCO)cc2)O[C@H]1c1ccccc1CN=[N+]=[N-]

>  <Label class>
Criterion not met

$$$$
>  <Compound>
COC(=O)[C@@]1(Cc2ccccc2)[C@H]2c3cc(C(=O)N(C)C)n(Cc4ccc(OC)c(OC)c4)c3C[C@H]2CN1C(=O)c1ccccc1

>  <Label class>
Criterion met

$$$$
>  <Compound>
CC[C@@H]1C=C(C(=O)O)[C@H](c2cccc3ccccc23)N1S(=O)(=O)c1ccc(C)cc1

>  <Label class>
Criterion not met

$$$$
>  <Compound>
COc1ccc([C@H]2C[C@H]3C(I)=C[C@@H]2C(=O)[C@]32CO2)cc1

>  <Label class>
Criterion not met

$$$$

composite z-score >= 0.1 for CS(=O)(=O)CCOC(=O)C1=CC(CCCO)=CC(c2ccc(CN3CCCC3)cc2)N(Cc2cccc(OC(F)(F)F)c2)C=C1C(=O)OCCS(C)(=O)=O (configuration not stated) ?
Criterion met

composite z-score >= 0.1 for [N-]=[N+]=Nc1ccccc1C[C@]1(C(=O)NCc2ccccc2)N=C(c2ccc(OCCCO)cc2)O[C@H]1c1ccccc1N=[N+]=[N-] ?
Criterion not met

composite z-score >= 0.1 for O=C(NC1CC1)[C@@H]1c2ccccc2C(=O)N(C2Cc3ccccc3C2)[C@H]1c1ccc(CO)cc1 ?
Criterion not met

composite z-score >= 0.1 for NCCCCCCNC(=O)[C@H]1C[C@H]2C(=O)N[C@@H](Cc3ccccc3)C(=O)N2[C@H]1c1cccc(OCCO)c1 ?
Criterion met

composite z-score >= 0.1 for COCC(=C=CC[C@H](O)c1cccc(OCCO)c1)CCO ?
Criterion not met

composite z-score >= 0.1 for [N-]=[N+]=NCc1ccccc1[C@H]1OC(c2ccc(OCCCO)cc2)=N[C@@]1(Cc1ccccc1)C(=O)N1CCCCC1 ?
Criterion not met

composite z-score >= 0.1 for CC(C)[Si](C#CCCCC#N)(Oc1ccccc1Br)C(C)C ?
Criterion not met

composite z-score >= 0.1 for COc1ccc(NC(=O)O[C@H]2[C@H](OC(=O)c3cc4ccccc4[nH]3)[C@@H](OC(=O)c3cc4ccccc4[nH]3)[C@@H](OC)O[C@@H]2CO)cc1 ?
Criterion not met

composite z-score >= 0.1 for O=C(NCc1ccccc1)[C@@H]1c2ccccc2C(=O)N(C2Cc3ccccc3C2)[C@H]1c1ccc(CO)cc1 ?
Criterion met

composite z-score >= 0.1 for COc1ccccc1CN1C(=O)c2ccccc2[C@@H](C(=O)NCc2ccccc2)[C@@H]1c1ccc(CO)cc1 ?
Criterion not met

composite z-score >= 0.1 for O[C@@H](Cc1ccccc1)[C@@H](/C=C/C1CC1)NCc1cccc(Cl)c1 ?
Criterion met

composite z-score >= 0.1 for O=C1C2C=CC(C(O)c3ccc4c(c3)OCO4)N(Nc3ccc([N+](=O)[O-])cc3)C2C(=O)N1c1ccccc1 (configuration not stated) ?
Criterion not met

composite z-score >= 0.1 for C=CCN1C(=O)[C@]2(Cc3ccccc3)N=C(c3ccc(OCCCO)cc3)O[C@@H]2c2ccccc21 ?
Criterion not met

composite z-score >= 0.1 for CCOC(=O)[C@H]1C/C=C/C[C@H](C(=O)OCC)C(=O)O[C@H]2[C@@H](OC)O[C@H](CO)[C@@H](OC(=O)c3ccc(Br)cc3)[C@@H]2OC1=O ?
Criterion not met

composite z-score >= 0.1 for CCCC[C@H]1C[C@@H]1[C@@H]1N(P(=O)(c2ccccc2)c2ccccc2)C[C@@](O)(c2ccccc2)CC12CC2 ?
Criterion met
